Tested on: CRL-7250
Assay: qHTS assay to identify novel small-molecules to repurpose for Merkel cell carcinoma treatment (AID 1296009); note: nearly all actives have a fitted effect of over 60% in size
Conditions: MCC and control cell lines, CellTiter-Glo viability, 72 h; at 44.8 µM (top of the series) unless noted
Results filed as inconclusive are left out. Active and inactive are the calls of the source. Calls come from the whole dose curve; as a rule, active = well fitted inhibition curve with a large enough effect; inconclusive = small, poorly fitted or top-dose-only effect; inactive = flat fitted curve, though single readings scatter.

{"compound": "Cc1ccccc1OCC(O)CO (stereo unspecified)", "outcome": "inactive"}
{"compound": "CCC[C@@]1(CCc2ccccc2)CC(O)=C([C@H](CC)c2cccc(NS(=O)(=O)c3ccc(C(F)(F)F)cn3)c2)C(=O)O1", "outcome": "inactive"}
{"compound": "CC(C)(C)NCC(O)c1cc(Cl)c(N)c(C(F)(F)F)c1 (stereo unspecified)", "outcome": "inactive"}
{"compound": "CC(=O)CC/C=C(\\C)CC/C=C(\\C)CC/C=C(\\C)CCC=C(C)C", "outcome": "inactive"}
{"compound": "CCCCCCn1c(=O)c2c(ncn2C)n(C)c1=O", "outcome": "inactive"}
{"compound": "CN(C)C(=O)Oc1ccc[n+](C)c1", "outcome": "inactive"}

====

Assay: NS1 protein of Zika virus - qHTS assay to identify small molecule inhibitors in human HEK 293 cells (AID 1347053);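 note: plate controls were infected untreated cells for no effect and uninfected cells for full effect; nearly all actives have a fitted effect of over 55% in size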
Settings: HEK293 ZIKV MR766 infection, NS1 TR-FRET, 24 h; series mostly up to 46.1 µM
Records with an inconclusive call do not appear. Active and inactive are the calls of the source. Calls come from the whole dose curve; as a rule, active = well fitted inhibition curve with a large enough effect; inconclusive = small, poorly fitted or top-dose-only effect; inactive = no such curve, though single readings can be large or run the other way.

{"compound": "O=C1OC(c2ccc(O)c(S(=O)(=O)O)c2)(c2ccc(O)c(S(=O)(=O)O)c2)c2c(Br)c(Br)c(Br)c(Br)c21", "outcome": "inactive"}
{"compound": "C=CCC1(C(C)CC)C(=O)NC(=O)NC1=O (stereo not given)", "outcome": "inactive"}
{"compound": "O=C(O)c1ccc(=O)[nH]c1", "outcome": "inactive"}
{"compound": "CCN(CC)C(=O)[C@@H]1C=C2c3cccc4[nH]cc(c34)C[C@H]2N(C)C1", "outcome": "inactive"}
{"compound": "CN1CC[C@]23c4c5ccc(O)c4O[C@H]2[C@@H](O)CC[C@H]3[C@H]1C5", "outcome": "inactive"}

====

Biological target: Luciferin 4-monooxygenase (Photinus pyralis) (UniProt P08659)
Sequence (P08659 whole entry, looked up): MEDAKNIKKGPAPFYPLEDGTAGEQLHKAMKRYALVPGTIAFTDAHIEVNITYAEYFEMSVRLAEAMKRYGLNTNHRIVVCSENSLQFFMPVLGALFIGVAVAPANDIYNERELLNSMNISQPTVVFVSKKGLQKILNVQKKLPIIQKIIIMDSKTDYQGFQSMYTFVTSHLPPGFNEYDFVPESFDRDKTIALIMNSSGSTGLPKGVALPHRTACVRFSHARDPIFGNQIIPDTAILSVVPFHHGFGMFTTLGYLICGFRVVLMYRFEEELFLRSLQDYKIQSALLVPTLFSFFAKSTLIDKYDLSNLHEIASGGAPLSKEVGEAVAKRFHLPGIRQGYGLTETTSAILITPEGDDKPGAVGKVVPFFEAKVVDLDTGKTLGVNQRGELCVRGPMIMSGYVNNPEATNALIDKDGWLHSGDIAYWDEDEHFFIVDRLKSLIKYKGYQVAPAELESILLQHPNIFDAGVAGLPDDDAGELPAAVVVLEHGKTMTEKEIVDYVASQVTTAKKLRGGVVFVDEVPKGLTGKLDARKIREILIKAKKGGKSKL
Experiment: Biochemical firefly luciferase enzyme assay for NPC (AID 624030); note: nearly all actives have a fitted effect of over 70% in size
Settings: purified P. pyralis luciferase, luminescence, 5 min; series mostly up to 58.6 µM
Inconclusive results are not listed. Active and inactive are the calls of the source. Calls follow the shape of the dose curve; as a rule, active = well fitted inhibition curve with a large enough effect; inconclusive = small, poorly fitted or top-dose-only effect; inactive = flat fitted curve, though single readings scatter.
Outcomes: 1 (active), -1 (inactive)

{"compound": "O=C1CN=C(c2ccccc2)c2cc([N+](=O)[O-])ccc2N1", "assay_system": "Luciferin 4-monooxygenase (Photinus pyralis) (UniProt P08659)", "discrete_label": -1}
{"compound": "C[C@]12CC[C@@H]3c4ccc(OC(=O)N(CCCl)CCCl)cc4CC[C@H]3[C@@H]1CC[C@@H]2OP(=O)(O)O", "assay_system": "Luciferin 4-monooxygenase (Photinus pyralis) (UniProt P08659)", "discrete_label": -1}
{"compound": "COc1cc(CC(C)N)cc(OC)c1OC (stereo not given)", "assay_system": "Luciferin 4-monooxygenase (Photinus pyralis) (UniProt P08659)", "discrete_label": -1}
{"compound": "O=c1oc2ccccc2c(O)c1Cc1c(O)c2ccccc2oc1=O", "assay_system": "Luciferin 4-monooxygenase (Photinus pyralis) (UniProt P08659)", "discrete_label": -1}
{"compound": "O=c1[nH]oc2c1CCNC2", "assay_system": "Luciferin 4-monooxygenase (Photinus pyralis) (UniProt P08659)", "discrete_label": -1}
{"compound": "Nc1ccccc1", "assay_system": "Luciferin 4-monooxygenase (Photinus pyralis) (UniProt P08659)", "discrete_label": -1}
{"compound": "CN1C(=O)CCS(=O)(=O)C1c1ccc(Cl)cc1 (stereo not given)", "assay_system": "Luciferin 4-monooxygenase (Photinus pyralis) (UniProt P08659)", "discrete_label": -1}
{"compound": "COP(=S)(OC)SCN1C(=O)c2ccccc2C1=O", "assay_system": "Luciferin 4-monooxygenase (Photinus pyralis) (UniProt P08659)", "discrete_label": -1}
{"compound": "Nc1nc(N)nc(NC2CC2)n1", "assay_system": "Luciferin 4-monooxygenase (Photinus pyralis) (UniProt P08659)", "discrete_label": -1}
{"compound": "CN1C(=O)NC(=O)C(C)(C2=CCCCC2)C1=O (stereo not given)", "assay_system": "Luciferin 4-monooxygenase (Photinus pyralis) (UniProt P08659)", "discrete_label": -1}
{"compound": "CC(Cc1ccccc1)NCCn1cnc2c1c(=O)n(C)c(=O)n2C (stereo not given)", "assay_system": "Luciferin 4-monooxygenase (Photinus pyralis) (UniProt P08659)", "discrete_label": -1}
{"compound": "CC(C)(C)c1ccc(O)cc1", "assay_system": "Luciferin 4-monooxygenase (Photinus pyralis) (UniProt P08659)", "discrete_label": -1}
{"compound": "O=C(CCCN1CCC2(CC1)C(=O)NCN2c1ccccc1)c1ccc(F)cc1", "assay_system": "Luciferin 4-monooxygenase (Photinus pyralis) (UniProt P08659)", "discrete_label": -1}
{"compound": "Clc1ccc(C(c2ccc(Cl)cc2)C(Cl)(Cl)Cl)cc1", "assay_system": "Luciferin 4-monooxygenase (Photinus pyralis) (UniProt P08659)", "discrete_label": -1}
{"compound": "Nc1ccccc1C(=O)O", "assay_system": "Luciferin 4-monooxygenase (Photinus pyralis) (UniProt P08659)", "discrete_label": -1}
{"compound": "CCc1cc2c(s1)-n1c(C)nnc1CN=C2c1ccccc1Cl", "assay_system": "Luciferin 4-monooxygenase (Photinus pyralis) (UniProt P08659)", "discrete_label": -1}
{"compound": "C[C@]12CCC(=O)C=C1CC[C@@H]1[C@@H]2CC[C@]2(C)C(=O)CC[C@@H]12", "assay_system": "Luciferin 4-monooxygenase (Photinus pyralis) (UniProt P08659)", "discrete_label": -1}
{"compound": "COc1cc(CCN)cc(OC)c1OC", "assay_system": "Luciferin 4-monooxygenase (Photinus pyralis) (UniProt P08659)", "discrete_label": -1}
{"compound": "O=C(N/N=C/c1ccc([N+](=O)[O-])o1)c1cc([N+](=O)[O-])cc([N+](=O)[O-])c1O", "assay_system": "Luciferin 4-monooxygenase (Photinus pyralis) (UniProt P08659)", "discrete_label": 1}
{"compound": "COc1cccc(C(=O)CCN[C@@H](C)[C@H](O)c2ccccc2)c1", "assay_system": "Luciferin 4-monooxygenase (Photinus pyralis) (UniProt P08659)", "discrete_label": -1}
{"compound": "COC1CC(=C(c2cccs2)c2cccs2)C[N+](C)(C)C1 (stereo not given)", "assay_system": "Luciferin 4-monooxygenase (Photinus pyralis) (UniProt P08659)", "discrete_label": -1}
{"compound": "COc1ccc2c(c1OC)C(=O)O[C@H]2[C@@H]1c2cc3c(cc2CCN1C)OCO3", "assay_system": "Luciferin 4-monooxygenase (Photinus pyralis) (UniProt P08659)", "discrete_label": -1}
{"compound": "C[C@H](N)C(=O)c1ccccc1", "assay_system": "Luciferin 4-monooxygenase (Photinus pyralis) (UniProt P08659)", "discrete_label": -1}
{"compound": "O=C1OC(c2ccc(O)c(S(=O)(=O)O)c2)(c2ccc(O)c(S(=O)(=O)O)c2)c2c(Br)c(Br)c(Br)c(Br)c21", "assay_system": "Luciferin 4-monooxygenase (Photinus pyralis) (UniProt P08659)", "discrete_label": 1}
{"compound": "CCOC(=O)CC(SP(=S)(OC)OC)C(=O)OCC (stereo not given)", "assay_system": "Luciferin 4-monooxygenase (Photinus pyralis) (UniProt P08659)", "discrete_label": -1}
{"compound": "COc1c2c(cc3c1OCO3)CCN(C)C2", "assay_system": "Luciferin 4-monooxygenase (Photinus pyralis) (UniProt P08659)", "discrete_label": -1}
{"compound": "O=C1c2ccccc2C(=O)c2ccccc21", "assay_system": "Luciferin 4-monooxygenase (Photinus pyralis) (UniProt P08659)", "discrete_label": -1}
{"compound": "CN1C(=O)C(O)N=C(c2ccccc2)c2cc(Cl)ccc21 (stereo not given)", "assay_system": "Luciferin 4-monooxygenase (Photinus pyralis) (UniProt P08659)", "discrete_label": -1}
{"compound": "CN1C(=O)COc2c(C(=O)NC3CN4CCC3CC4)cc(Cl)cc21 (stereo not given)", "assay_system": "Luciferin 4-monooxygenase (Photinus pyralis) (UniProt P08659)", "discrete_label": -1}
{"compound": "O=C1Nc2ccc(Cl)cc2C(c2ccccc2Cl)=NC1O (stereo not given)", "assay_system": "Luciferin 4-monooxygenase (Photinus pyralis) (UniProt P08659)", "discrete_label": -1}
{"compound": "C[C@](O)(CS(=O)(=O)c1ccc(F)cc1)C(=O)Nc1ccc(C#N)c(C(F)(F)F)c1", "assay_system": "Luciferin 4-monooxygenase (Photinus pyralis) (UniProt P08659)", "discrete_label": -1}
{"compound": "CCC(C)(C)c1ccc(O)cc1", "assay_system": "Luciferin 4-monooxygenase (Photinus pyralis) (UniProt P08659)", "discrete_label": -1}
{"compound": "CN(C)CCc1c[nH]c2cccc(OP(=O)(O)O)c12", "assay_system": "Luciferin 4-monooxygenase (Photinus pyralis) (UniProt P08659)", "discrete_label": -1}
{"compound": "CNC(C)(C)Cc1ccccc1", "assay_system": "Luciferin 4-monooxygenase (Photinus pyralis) (UniProt P08659)", "discrete_label": -1}
{"compound": "COC(=O)C(c1ccccc1)C1CCCCN1 (stereo not given)", "assay_system": "Luciferin 4-monooxygenase (Photinus pyralis) (UniProt P08659)", "discrete_label": -1}
{"compound": "Clc1ccc2c(c1)C(c1ccccc1)=NCc1nncn1-2", "assay_system": "Luciferin 4-monooxygenase (Photinus pyralis) (UniProt P08659)", "discrete_label": -1}
{"compound": "C=CCN1C[C@H](C)N([C@H](c2ccc(C(=O)N(CC)CC)cc2)c2cccc(OC)c2)C[C@H]1C", "assay_system": "Luciferin 4-monooxygenase (Photinus pyralis) (UniProt P08659)", "discrete_label": -1}
{"compound": "Clc1cccc(SC2CCNCC2)n1", "assay_system": "Luciferin 4-monooxygenase (Photinus pyralis) (UniProt P08659)", "discrete_label": -1}
{"compound": "Nc1ccc([As](=O)(O)O)cc1", "assay_system": "Luciferin 4-monooxygenase (Photinus pyralis) (UniProt P08659)", "discrete_label": -1}
{"compound": "CCN[C@@H](C)Cc1cccc(C(F)(F)F)c1", "assay_system": "Luciferin 4-monooxygenase (Photinus pyralis) (UniProt P08659)", "discrete_label": -1}
{"compound": "COC(=O)C(Cl)C(=O)OC", "assay_system": "Luciferin 4-monooxygenase (Photinus pyralis) (UniProt P08659)", "discrete_label": -1}
{"compound": "COP(=S)(OC)Oc1ccc(S(=O)(=O)N(C)C)cc1", "assay_system": "Luciferin 4-monooxygenase (Photinus pyralis) (UniProt P08659)", "discrete_label": -1}
{"compound": "CCN(CC)C(=O)[C@@H]1C=C2c3cccc4[nH]cc(c34)C[C@H]2N(C)C1", "assay_system": "Luciferin 4-monooxygenase (Photinus pyralis) (UniProt P08659)", "discrete_label": -1}
{"compound": "CN1C[C@H](C(=O)N[C@]2(C)O[C@@]3(O)[C@@H]4CCCN4C(=O)[C@H](Cc4ccccc4)N3C2=O)C=C2c3cccc4[nH]cc(c34)C[C@H]21", "assay_system": "Luciferin 4-monooxygenase (Photinus pyralis) (UniProt P08659)", "discrete_label": -1}
{"compound": "c1ccc(CN2CCNCC2)cc1", "assay_system": "Luciferin 4-monooxygenase (Photinus pyralis) (UniProt P08659)", "discrete_label": -1}
{"compound": "C[C@]12CCC(=O)C=C1CC[C@@H]1[C@H]3CC[C@](C)(O)[C@@]3(C)CC[C@@H]12", "assay_system": "Luciferin 4-monooxygenase (Photinus pyralis) (UniProt P08659)", "discrete_label": -1}
{"compound": "Cc1nnc2n1-c1ccc(Cl)cc1C(c1ccccc1Cl)=NC2", "assay_system": "Luciferin 4-monooxygenase (Photinus pyralis) (UniProt P08659)", "discrete_label": -1}
{"compound": "NCCc1ccc(O)cc1", "assay_system": "Luciferin 4-monooxygenase (Photinus pyralis) (UniProt P08659)", "discrete_label": -1}
{"compound": "NC(=O)CS(=O)C(c1ccccc1)c1ccccc1 (stereo not given)", "assay_system": "Luciferin 4-monooxygenase (Photinus pyralis) (UniProt P08659)", "discrete_label": -1}
{"compound": "CC(C)=CC1C(C(=O)OCN2C(=O)C3=C(CCCC3)C2=O)C1(C)C (stereo not given)", "assay_system": "Luciferin 4-monooxygenase (Photinus pyralis) (UniProt P08659)", "discrete_label": -1}
